Entry source: ChEMBL document CHEMBL1144182

# assayRemarks: Cytotoxicity against mock-infected human MT4 cells assessed as reduction in cell viability after 96 hrs by MTT assay
# Type: cell-based
Each entry below lists one item and its recorded CC50 at 96 h value.
measuredProperty: CC50 at 96 h

smiles=CN1C=C(/N=N/c2ccc(F)c(C(F)(F)F)c2)CCC1 experimentalresult="> 100 µM"
smiles=CN1C=C(/N=N/c2ccc(F)cc2)CCC1 experimentalresult="≥ 100 µM"
smiles=C[C@@]1(O)[C@H](O)[C@@H](CO)O[C@H]1n1cnc2c(=O)[nH]c(N)nc21 experimentalresult="> 100 µM"
smiles=CN1C=C(/N=N/c2cccc3ccccc23)CCC1 experimentalresult="> 100 µM"
